FYI, the data here is from ChEMBL document CHEMBL1201862.

test system: MDA-MB-435; test: NCI tumour cell line growth inhibition, 48 h
Calls of active or inactive are those of the source. Cut-off read from the data, not from the text of the source: active = GI50 up to about 1.1 µM and inactive = higher. *1 amine or outer side, *2 acyl side, *3 side chain or, on linkers, in order; H or OH if unused. Where a SMILES comes first, the peptide text is derived from it. The star is where a group is joined. γGlu = O=C(O)[CH](CCC(=O)[*:2])N[*:1]; NHOH = ON*
Choose the fitting class; nothing outside 1 (active), 0 (inactive) is accepted.

**Query** Please let me know the test result on file for N/C(=N/c1ccc(O)cc1)S(=O)O .
**Result** 0

**Query** Please let me know the test result on file for Nc1ncnc2c1ncn2[C@@H]1O[C@H](C(=O)O)[C@@H](O)[C@H]1O [5'-CARBOXY ADENOSINE] .
**Result** 0

**Query** Please let me know the test result on file for Cc1nccn1S(=O)(=O)c1ccc(Br)cc1Br .
**Result** 0

**Query** Please let me know the test result on file for COc1ccc(N2C=Nn3c(nc4sc5c(c4c3=O)CCCC5)C2)cc1 .
**Result** 0

**Query** Please let me know the test result on file for NC(CCC(=O)NC(CCC(=O)NO)C(=O)NCC(=O)O)C(=O)O (stereo not given) (γGlu-Glu(NHOH)-Gly-OH; configuration not given here) .
**Result** 0

**Query** Please let me know the test result on file for CC(=O)OCC1OC(N2C(=O)/C(=C\c3ccc(Cl)cc3)C(N)=Nc3ccccc32)C(OC(C)=O)C(OC(C)=O)C1OC(C)=O (stereo not given) .
**Result** 0

**Query** Please let me know the test result on file for NC(CCCCNc1ccn(C2OC(CO)C(O)C2O)c(=O)n1)C(=O)O (stereo not given) .
**Result** 0

**Query** Please let me know the test result on file for CCCCCC(O)(CCCCC)CCCCCCCCC1=C(O)C(=O)c2ccccc2C1=O .
**Result** 0

**Query** Please let me know the test result on file for O=[N+]([O-])c1ccc(S(=O)(=O)Cc2ccccc2)c2nonc12 .
**Result** 0

**Query** Please let me know the test result on file for [O-][n+]1c(CN2CCCCC2)nc2cccc3c2c1-c1ccccc1-3 .
**Result** 0

**Query** Please let me know the test result on file for CCOC(C)O[C@H]1C(=O)OCC1(C)C (stereo not given in full) .
**Result** 0

**Query** Please let me know the test result on file for CCN(CC)CCNc1ccc2nnn3c4ccc(OCCN(CC)CC)cc4c(=O)c1c23 .
**Result** 0

**Query** Please let me know the test result on file for COC1(OC)C2C=CC1C([C@](C)(N)CO)C2 (stereo not given in full) .
**Result** 0

**Query** Please let me know the test result on file for CCOC(=O)C(Cc1ccc2c(c1)CCC2)(Cc1ccc2c(c1)CCC2)C(=O)OCC .
**Result** 0
